Just for reference, PubChem BioAssay AID2546 is where these values come from.

experiment: VP16 counterscreen qHTS for inhibitors of ROR gamma transcriptional activity; conditions: Drosophila S2 Gal4-VP16 UAS-luciferase, luminescence, 20 h; series mostly up to 53.6 µM;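 also: Gal4-VP16 expression switched on by copper sulfate through the metallothionein promoter; nearly all actives have a fitted effect of over 50% in size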
About 11,000 (3.5%) of roughly 310,000 compounds were called active. About 8% were inconclusive and are not listed. Calls follow the shape of the dose curve; as a rule, active = well fitted inhibition curve with a large enough effect; inconclusive = small, poorly fitted or top-dose-only effect, or effect the other way; inactive = flat fitted curve, though single readings scatter. This is one part of a sample in which actives are shown more often than they occur.
Your answer must be one of the following: Y for active, N for inactive

Inquiry: Field: outcome | Entry: Cc1cccc(S(=O)(=O)N2CN(CC3CCCO3)c3nc4ccccc4nc32)c1 (stereo unspecified)
Reply text: N

Inquiry: Please answer likewise for CCOC(=O)N1CCN(C(=O)c2ccc3c(=O)n(CCc4ccc(OC)c(OC)c4)c(=O)[nH]c3c2)CC1
Reply text: N

Inquiry: Now consider COc1cc(SC)ccc1C(=O)Nc1nc(C)cs1 .
Reply text: Y

Inquiry: # repeat for O=C(NNc1cc(Cl)ccc1Cl)c1cccnc1Cl
Reply text: N

Inquiry: And N=c1oc2ccccc2cc1C(=O)NCc1ccccc1 ?
Reply text: N

Inquiry: Let us now turn to COc1ccc(CNc2cc(C)cc(C)c2)cc1OC
Reply text: N

Inquiry: // next record CS(=O)(=O)N(CC(=O)N1CCOCC1)c1cccc(Cl)c1Cl
Reply text: N

Inquiry: Item: Cc1c(CNCCc2ccccc2)c(C(=O)O)c(C)n1-c1ccccc1
Reply text: N

Inquiry: Here is the next molecule: COc1cc(-c2n[nH]c(=S)n2Cc2ccccc2)cc(OC)c1OC
Reply text: N

Inquiry: Entry to check: O=C(NNS(=O)(=O)c1ccc(F)cc1)c1ccc([N+](=O)[O-])cc1Cl
Reply text: N

Inquiry: Likewise for O=C(O)C[C@@H]1NC(=O)[C@H](Cc2ccccc2)NC1=O ?
Reply text: N
